The reader will find reported Ratio OD(Variant)/OD(WT) values listed item by item below.
SUBJECT OF TEST: HRgpA-6H (Porphyromonas gingivalis) (UniProt P28784)
METHOD DESCRIPTION: ELISA, coated HRgpA-6H
Just the number, please, no unit attached.

Worked examples follow.
BINDER	READOUT NUMBER
KB001 mouse Fab VL S30L (Fab, V domains shown) VH: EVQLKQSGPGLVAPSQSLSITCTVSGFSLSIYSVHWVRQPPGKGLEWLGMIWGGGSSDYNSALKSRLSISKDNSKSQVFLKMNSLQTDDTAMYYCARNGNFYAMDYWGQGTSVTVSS VL: QIVLTQSPAIMSASLGERVTMTCTASSSVLSSFLHWYQQKPGSSPQLWIYSTSNLASGVPARFSGSGSGTSYSLTISSMEAEDAATYYCHQYHHSPYIYTFGGGTKLEIK	0.943
KB001 mouse Fab VL T52S (Fab, V domains shown) VH: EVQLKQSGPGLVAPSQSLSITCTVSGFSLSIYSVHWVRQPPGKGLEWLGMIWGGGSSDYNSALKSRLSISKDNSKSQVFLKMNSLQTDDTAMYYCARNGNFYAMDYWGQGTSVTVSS VL: QIVLTQSPAIMSASLGERVTMTCTASSSVSSSFLHWYQQKPGSSPQLWIYSSSNLASGVPARFSGSGSGTSYSLTISSMEAEDAATYYCHQYHHSPYIYTFGGGTKLEIK	1.06

Input line: Return value of Ratio OD(Variant)/OD(WT) for input KB001 mouse Fab VL L34I (Fab, V domains shown) VH: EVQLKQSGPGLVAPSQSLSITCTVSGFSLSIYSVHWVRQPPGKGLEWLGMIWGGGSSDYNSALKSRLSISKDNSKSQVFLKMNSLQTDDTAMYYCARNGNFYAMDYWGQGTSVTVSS VL: QIVLTQSPAIMSASLGERVTMTCTASSSVSSSFIHWYQQKPGSSPQLWIYSTSNLASGVPARFSGSGSGTSYSLTISSMEAEDAATYYCHQYHHSPYIYTFGGGTKLEIK , no commentary.
Output line: 0.884
